- assay conditions: in n-butanol, 323.15 K
parameter measured: solubility (mole fraction)
Just the number, please, no unit after it.

Field solubility (mole fraction) (entry CCOC(=O)[C@@H]1CSCN1.Cl ) reads 0.017

###

- assay conditions: in ethanol, 293.15 K
parameter measured: solubility (mole fraction)
Just the number, please, no unit after it.

Field solubility (mole fraction) (entry CCOC(=O)[C@@H]1CSCN1.Cl ) reads 0.0125

###

- assay conditions: in isopropanol, 323.15 K
parameter measured: solubility (mole fraction)
Just the number, please, no unit after it.

Field solubility (mole fraction) (entry CCOC(=O)[C@@H]1CSCN1.Cl ) reads 0.0131

###

- assay conditions: in isopropanol, 293.15 K
parameter measured: solubility (mole fraction)
Just the number, please, no unit after it.

Field solubility (mole fraction) (entry CCOC(=O)[C@@H]1CSCN1.Cl ) reads 0.00323
